System: MCF7
assayDetails: Anticancer activity against human MCF7 cells assessed as reduction in cell viability incubated for 24 hrs by MTT assay
Type: functional, cell-based
measurementContext: MCF7, 24 h
metric: IC50 (µM)
Answer with a number only, understood to be in µM.

Per the reported MCF7 data, CCOC(=O)C1=C(C)Oc2nc(C)n(Cc3cn(-c4ccc([N+](=O)[O-])cc4)nn3)c(=O)c2C1c1ccccc1 (stereo unspecified) has IC50 of 71.4

---

Tested on: Staphylococcus aureus
assayDetails: Antibacterial activity against Staphylococcus aureus NCTC-7447 assessed as diameter of inhibition zone incubated for 24 hrs by disc diffusion method
Assay type: functional
metric: diameter of the inhibition zone (DIZ) (mm)
Answer with a number only, understood to be in mm.

// below: answered compounds
O=c1oc2ccccc2c2c1C(c1ccc(Cl)cc1)c1c(ncn3nc(CCl)nc13)O2 (stereo not given); 18
CCOC(=O)n1c(=O)nc2c3c(ncn21)Oc1c(c(=O)oc2ccccc12)C3c1ccc(Cl)cc1 (stereo not given); 18
N#CCc1nc2c3c(ncn2n1)Oc1c(c(=O)oc2ccccc12)C3c1ccc(Cl)cc1 (stereo not given); 18

// recorded diameter of the inhibition zone (DIZ) for CCOC(=O)c1nc2c3c(ncn2n1)Oc1c(c(=O)oc2ccccc12)C3c1ccc(Cl)cc1 (stereo not given) : 18

// recorded diameter of the inhibition zone (DIZ) for "CC1(C)S[C@@H]2[C@H](NC(=O)[C@H](N)c3ccccc3)C(=O)N2[C@H]1C(=O)O" : 25

---

systemUnderTest: DNA gyrase (Escherichia coli, UniProt P0AES4+P0AES6)
assayDetails: Inhibition of Escherichia coli DNA gyrase
metric: IC50 (nM)
Answer with a number only, understood to be in nM.

// recorded IC50 for Nc1nc(=S)[nH]c2c1C(c1ccc(Cl)cc1)C=C(c1cc3ccccc3oc1=O)O2 (stereo unspecified) : 4.91

---

Test system: Staphylococcus aureus
assayDetails: Antibacterial activity against Staphylococcus aureus assessed as inhibition of bacterial growth
Assay type: functional
# reported MIC; entries follow
Remember to quote the unit after the number.

N#CC1=C(N)Oc2[nH]c(=O)[nH]c(=O)c2C1c1ccccc1O (centres undefined); 25 µg/mL
CC1(C)S[C@@H]2[C@H](NC(=O)[C@H](N)c3ccccc3)C(=O)N2[C@H]1C(=O)O [AMPICILLIN]; 250 µg/mL
O=C(O)c1cn(C2CC2)c2cc(N3CCNCC3)c(F)cc2c1=O [CIPROFLOXACIN]; 50 µg/mL

// recorded MIC for N#CC1=C(N)Oc2[nH]c(=O)[nH]c(=O)c2C1Cc1ccccc1 (centres undefined) : 25 µg/mL

---

# reported pIC50; entries follow
assayDetails: cells
measurementContext: Homo sapiens, Macrophage
Scale for pIC50: -log10 of concentration given in mol/L; no unit attached.

N#CC1=C(NC[C@]2(O)O[C@H](O)[C@@H](O)[C@@H](O)[C@H]2O)Oc2[nH]c(=S)[nH]c(=O)c2C1c1ccc(Cl)cc1 (some centres not stated); 5.49

Turning to the following molecule.
// recorded pIC50 for N=c1c2c(ncn1-c1ccccc1)Oc1[nH]c(=S)[nH]c(=O)c1C2c1ccc(Cl)cc1 (configuration not stated) : 5.46

---

Test system: HA22T cell line
assayDetails: Anticancer activity against human HA22T cells assessed as cell growth inhibition incubated for 24 hrs
Type: functional, cell-based
metric: IC50 (nM)
Answer with a number only, understood to be in nM.

// recorded IC50 for N#CC1=C(N)C2C(=NC(NN)=NC2c2ccc(Cl)cc2)OC1=O (stereo unspecified) : 282
